Provenance of the data: ChEMBL document CHEMBL5058643

# assayed.target: Voltage-dependent L-type calcium channel subunit alpha-1C (dihydropyridine site) (Rattus norvegicus, UniProt P22002)
# Sequence (P22002 whole entry): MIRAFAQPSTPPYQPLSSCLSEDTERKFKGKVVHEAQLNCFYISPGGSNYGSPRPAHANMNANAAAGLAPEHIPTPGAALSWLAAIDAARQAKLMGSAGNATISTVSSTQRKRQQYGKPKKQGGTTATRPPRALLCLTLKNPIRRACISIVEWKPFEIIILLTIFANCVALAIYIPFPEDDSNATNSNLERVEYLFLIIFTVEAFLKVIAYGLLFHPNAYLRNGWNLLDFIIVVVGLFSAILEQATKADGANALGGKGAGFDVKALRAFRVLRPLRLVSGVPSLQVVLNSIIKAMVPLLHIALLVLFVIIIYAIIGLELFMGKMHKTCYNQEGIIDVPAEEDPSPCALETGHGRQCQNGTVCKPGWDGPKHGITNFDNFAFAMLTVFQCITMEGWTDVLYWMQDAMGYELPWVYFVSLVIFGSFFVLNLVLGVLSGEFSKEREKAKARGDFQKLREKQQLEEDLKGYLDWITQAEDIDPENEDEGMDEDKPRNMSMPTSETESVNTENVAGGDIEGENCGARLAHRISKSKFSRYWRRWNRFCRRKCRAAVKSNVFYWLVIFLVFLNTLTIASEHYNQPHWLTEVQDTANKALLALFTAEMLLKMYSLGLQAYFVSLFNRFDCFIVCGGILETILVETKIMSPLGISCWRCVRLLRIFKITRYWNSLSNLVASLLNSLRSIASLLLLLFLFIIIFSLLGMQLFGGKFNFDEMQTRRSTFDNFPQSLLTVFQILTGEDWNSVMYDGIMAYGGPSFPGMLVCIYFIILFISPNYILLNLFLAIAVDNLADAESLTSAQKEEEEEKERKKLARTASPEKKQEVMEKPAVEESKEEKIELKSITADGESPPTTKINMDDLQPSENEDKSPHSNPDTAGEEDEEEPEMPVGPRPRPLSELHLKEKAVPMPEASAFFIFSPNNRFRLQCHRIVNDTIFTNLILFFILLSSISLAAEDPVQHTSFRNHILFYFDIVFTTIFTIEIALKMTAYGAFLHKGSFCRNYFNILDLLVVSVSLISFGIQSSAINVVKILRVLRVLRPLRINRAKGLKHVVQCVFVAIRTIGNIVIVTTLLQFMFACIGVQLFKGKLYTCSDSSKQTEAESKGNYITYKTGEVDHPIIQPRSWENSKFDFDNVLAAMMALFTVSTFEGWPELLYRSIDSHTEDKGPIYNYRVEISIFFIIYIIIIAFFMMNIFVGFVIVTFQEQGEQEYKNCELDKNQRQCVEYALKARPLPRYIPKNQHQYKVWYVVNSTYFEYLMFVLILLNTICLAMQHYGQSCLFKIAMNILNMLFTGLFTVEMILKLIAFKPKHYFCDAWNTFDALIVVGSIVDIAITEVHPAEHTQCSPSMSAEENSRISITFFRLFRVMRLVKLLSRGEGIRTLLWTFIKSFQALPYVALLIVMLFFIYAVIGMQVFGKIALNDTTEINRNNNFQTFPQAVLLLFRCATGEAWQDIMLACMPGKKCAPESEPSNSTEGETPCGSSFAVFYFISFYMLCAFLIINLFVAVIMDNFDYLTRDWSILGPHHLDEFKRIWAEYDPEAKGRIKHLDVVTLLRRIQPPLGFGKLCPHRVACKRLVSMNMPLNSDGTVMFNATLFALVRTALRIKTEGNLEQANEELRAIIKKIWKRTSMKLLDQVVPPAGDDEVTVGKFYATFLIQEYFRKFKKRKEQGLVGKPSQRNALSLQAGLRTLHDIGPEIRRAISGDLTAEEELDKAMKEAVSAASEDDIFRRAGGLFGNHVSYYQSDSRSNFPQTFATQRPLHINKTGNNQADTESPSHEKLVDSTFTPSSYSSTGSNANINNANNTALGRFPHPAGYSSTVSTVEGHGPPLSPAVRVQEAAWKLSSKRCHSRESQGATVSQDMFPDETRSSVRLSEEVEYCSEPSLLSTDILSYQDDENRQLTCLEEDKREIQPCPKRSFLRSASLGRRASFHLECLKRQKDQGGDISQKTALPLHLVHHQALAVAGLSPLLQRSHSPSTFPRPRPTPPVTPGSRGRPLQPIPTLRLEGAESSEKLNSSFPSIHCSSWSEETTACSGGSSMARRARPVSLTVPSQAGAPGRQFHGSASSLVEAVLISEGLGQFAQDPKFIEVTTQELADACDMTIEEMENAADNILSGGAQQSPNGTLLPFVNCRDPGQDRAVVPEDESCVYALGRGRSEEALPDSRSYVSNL
# run.description: CA+/DHPSI/R Eurofins SafetyScreen44 (BI)
# Set-up: mode of action inhibitor
# condition.context: rat brain, probe [3H](+)PN200-110, compound concentration 10 uM, read-out: % Ctrl

{"columns": ["structure.string", "activity at 10 µM"],
 "data": [
  ["COCCCS(=O)(=O)c1cc(C)c(-c2ccc(F)c3c2CC[C@H]3Oc2ccc3c(c2)OC[C@H]3CC(=O)O)c(C)c1", "90% (not active)"]
]}

---

# assayed.target: Voltage-dependent L-type calcium channel subunit alpha-1C (Rattus norvegicus, UniProt P22002)
# run.description: CA+/DHPSI/RA Eurofins SafetyScreen44 (BI)
# condition.context: compound concentration 10 uM, read-out: % Ctrl
quantity.name: activity at 10 µM

{"columns": ["structure.string", "measured.result"],
 "data": [
  ["Cc1cc(OCCC(C)(C)O)cc(C)c1-c1ccc(F)c2c1CC[C@H]2Oc1ccc2c(c1)OC[C@H]2CC(=O)O", "90% (not active)"]
]}

---

# assayed.target: hERG (KCNH2) (Homo sapiens, UniProt Q12809)
# Sequence (Q12809 whole entry): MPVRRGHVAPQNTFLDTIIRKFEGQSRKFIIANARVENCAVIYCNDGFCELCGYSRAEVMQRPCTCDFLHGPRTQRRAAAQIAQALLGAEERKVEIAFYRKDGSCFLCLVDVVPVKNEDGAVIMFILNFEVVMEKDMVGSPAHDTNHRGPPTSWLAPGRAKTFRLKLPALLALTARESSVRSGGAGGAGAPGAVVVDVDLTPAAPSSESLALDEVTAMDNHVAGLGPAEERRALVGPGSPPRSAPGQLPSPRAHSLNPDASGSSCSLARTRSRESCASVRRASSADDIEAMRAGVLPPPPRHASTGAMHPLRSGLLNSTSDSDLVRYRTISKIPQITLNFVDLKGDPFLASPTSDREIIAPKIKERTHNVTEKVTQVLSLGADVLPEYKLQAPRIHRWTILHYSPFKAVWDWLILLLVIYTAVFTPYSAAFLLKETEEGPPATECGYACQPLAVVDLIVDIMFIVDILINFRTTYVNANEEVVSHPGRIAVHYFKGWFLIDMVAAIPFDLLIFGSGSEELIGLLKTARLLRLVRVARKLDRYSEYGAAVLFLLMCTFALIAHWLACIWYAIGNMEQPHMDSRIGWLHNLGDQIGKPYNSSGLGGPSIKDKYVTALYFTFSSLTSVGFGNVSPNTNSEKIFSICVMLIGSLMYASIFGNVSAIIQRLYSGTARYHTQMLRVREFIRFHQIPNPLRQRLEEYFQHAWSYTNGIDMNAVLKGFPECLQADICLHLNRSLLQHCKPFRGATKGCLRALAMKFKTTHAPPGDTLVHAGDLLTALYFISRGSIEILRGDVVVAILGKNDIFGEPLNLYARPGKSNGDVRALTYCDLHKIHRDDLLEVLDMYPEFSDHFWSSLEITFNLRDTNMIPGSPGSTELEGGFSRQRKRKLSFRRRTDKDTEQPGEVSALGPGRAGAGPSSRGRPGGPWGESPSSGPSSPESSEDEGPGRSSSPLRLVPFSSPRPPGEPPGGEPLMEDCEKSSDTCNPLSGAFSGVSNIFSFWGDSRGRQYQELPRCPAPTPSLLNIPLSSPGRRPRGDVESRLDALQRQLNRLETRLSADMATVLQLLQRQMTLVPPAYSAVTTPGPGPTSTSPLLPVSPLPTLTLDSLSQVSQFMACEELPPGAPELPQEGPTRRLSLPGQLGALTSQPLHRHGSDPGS
# run.description: K+/HERG Eurofins SafetyScreen44 (BI)
# condition.context: compound concentration 10 uM, read-out: % Ctrl

{"columns": ["structure.string", "assayed.target", "activity at 10 µM"],
 "data": [
  ["Cc1cc(OCCC(C)(C)O)cc(C)c1-c1ccc(F)c2c1CC[C@H]2Oc1ccc2c(c1)OC[C@H]2CC(=O)O", "hERG (KCNH2) (Homo sapiens, UniProt Q12809)", "80% (not active)"]
]}

---

# assayed.target: hERG (KCNH2) (Homo sapiens)
# run.description: HERG_DOFETILIDE Eurofins SafetyScreen44 (BI)
# Parameters: mode of action inhibitor
# condition.context: probe [3H] Dofetilide, compound concentration 10 uM, read-out: % Ctrl

{"columns": ["structure.string", "assayed.target", "activity at 10 µM"],
 "data": [
  ["COCCCS(=O)(=O)c1cc(C)c(-c2ccc(F)c3c2CC[C@H]3Oc2ccc3c(c2)OC[C@H]3CC(=O)O)c(C)c1", "hERG (KCNH2) (Homo sapiens)", "93% (not active)"]
]}

---

# assayed.target: Voltage-dependent L-type calcium channel subunit alpha-1C (Rattus norvegicus, UniProt P22002)
# run.description: CA+/DILSI/RA Eurofins SafetyScreen44 (BI)
# condition.context: compound concentration 10 uM, read-out: % Ctrl

{"columns": ["structure.string", "activity at 10 µM"],
 "data": [
  ["Cc1cc(OCCC(C)(C)O)cc(C)c1-c1ccc(F)c2c1CC[C@H]2Oc1ccc2c(c1)OC[C@H]2CC(=O)O", "100% (not active)"]
]}
